System: HtrA1
Type: binding, human
CONDITION DESCRIPTION: ratio of signal for target protein over BSA background
Bridges are numbered along the chain shown (N, C = ends). Where no end group is shown, it is not given here.
Consider the following sequences; for each one, report its S/N.
# answer = number (no unit)

Entry AFDCLGQCGRCDFHKLQCVYRQFWMVKFGWQPGYCNSSCTR (also: bicyclic or more (positions not given here)) [HtrA1 AVR9 10] ; S/N = 15.2

Entry GPTQSHYGQCGGSGYWGLFMCASGTTCQSVTMTVSQCLPGAS (also: bicyclic or more (positions not given here)) [HtrA1 CBD 54] ; S/N = 5.6

Entry AFDCLGQCGRCDFHKLQCVWRWMHQYCNSSCTR (also: bicyclic or more (positions not given here)) [HtrA1 AVR9 2] ; S/N = 22.7

Entry WIPCISAALGCSCKNKVCYILNRSCGESCV (also: bicyclic or more (positions not given here)) [HtrA1 CirculinA 40] ; S/N = 8.0

Entry WIPCISAALGCSCKNKVCYFFHKLMYYMCGESCV (also: bicyclic or more (positions not given here)) [HtrA1 CirculinA 24] ; S/N = 17.7

Entry AFDCLGQCGRCDFHKLQCVVTIIRKMMLWYCNSSCTR (also: bicyclic or more (positions not given here)) [HtrA1 AVR9 31] ; S/N = 19.0

Entry AFDCLGQCGRCDFHKLQCVRWSIDAIIIWYCNSSCTR (also: bicyclic or more (positions not given here)) [HtrA1 AVR9 42] ; S/N = 12.1

Entry WIPCISAALGCSCKNKVCYHFQHWVQMNKCGESCV (also: bicyclic or more (positions not given here)) [HtrA1 CirculinA 82] ; S/N = 10.4

Entry AFDCLGQCGRCDFHKLQCVIQQMRWKAQPDGYCNSSCTR (also: bicyclic or more (positions not given here)) [HtrA1 AVR9 37] ; S/N = 9.7

Entry WIPCISAALGCSCKNKVCYFMTQHIRWFVKCGESCV (also: bicyclic or more (positions not given here)) [HtrA1 CirculinA 91] ; S/N = 26.8

Entry AFDCLGQCGRCDFHKLQCVKQVMATLWSMYCNSSCTR (also: bicyclic or more (positions not given here)) [HtrA1 AVR9 39] ; S/N = 9.9

Entry WIPCISAALGCSCKNKVCYMYYYIMGQNLMNTCGESCV (also: bicyclic or more (positions not given here)) [HtrA1 CirculinA 48] ; S/N = 24.1

Entry WIPCISAALGCSCKNKVCYYTILPISYYWHLVCGESCV (also: bicyclic or more (positions not given here)) [HtrA1 CirculinA 45] ; S/N = 8.2

Entry AFDCLGQCGRCDFHKLQCVWRYIQKMRYCNSSCTR (also: bicyclic or more (positions not given here)) [HtrA1 AVR9 89] ; S/N = 14.9

Entry WIPCISAALGCSCKNKVCYALNNMVQFLYIHHCGESCV (also: bicyclic or more (positions not given here)) [HtrA1 CirculinA 66] ; S/N = 12.7

Entry WIPCISAALGCSCKNKVCYYVMKYCGESCV (also: bicyclic or more (positions not given here)) [HtrA1 CirculinA 17] ; S/N = 13.7

Entry GCREMLGNWVCKRFRLSSWLCLWSNGFCGT [HtrA1 EET I-II 41] ; S/N = 11.8

Entry WIPCISAALGCSCKNKVCYYMWHVHSLICGESCV (also: bicyclic or more (positions not given here)) [HtrA1 CirculinA 36] ; S/N = 9.6

Entry GPTQSFWGWCGGIGYVGGRYCSGTTCQRPDAHWSQCLPGAS (disulfide 10-26, 21-36 (inferred)) [HtrA1_CBDamy86] ; S/N = 22.8

Entry AFDCLGQCGRCDFHKLQCVAWLMYSFVRPYCNSSCTR (also: bicyclic or more (positions not given here)) [HtrA1 AVR9 53] ; S/N = 7.3

Entry GCPRILMRCKQDSDCLAGCVCWMPVLCV (also: bicyclic or more (positions not given here)) [HtrA1 EET I-II 19] ; S/N = 3.1

Entry AFDCLGQCGRCDFHKLQCVFWHWYYCNSSCTR (also: bicyclic or more (positions not given here)) [HtrA1 AVR9 84] ; S/N = 8.5

Entry GPTQSHYGQCGGWGYTGWYQCASGTTCQGPRSRLSQCLPGAS (also: bicyclic or more (positions not given here)) [HtrA1_CBDwt46] ; S/N = 25.9

Entry AFDCLGQCGRCDFHKLQCVQYAYRWLMRQYCNSSCTR (also: bicyclic or more (positions not given here)) [HtrA1 AVR9 55] ; S/N = 4.1

Entry WIPCISAALGCSCKNKVCYQVWQHIFKCGESCV (also: bicyclic or more (positions not given here)) [HtrA1 CirculinA 67] ; S/N = 15.4

---

Tested on: EpCAM
EXPERIMENT: Spot phage ELISA, EpCAM
Assay type: binding, human
CONDITION DESCRIPTION: spot phage ELISA signal-to-noise on EpCAM
Where no end group is shown, it is not given here.
Decision: S/N >= 20 yields Fulfilled, all other cases yield Not fulfilled.

Request: State whether the measured S/N reaches 20, counting equality as reaching it, for GPTQSHYGQCGGSGYPGAVVCSGTTCQWRQVPRSQCLPGAS (disulfide (positions not given here)) [EpCAM CBD 18]
Response: Not fulfilled

Request: State whether the measured S/N reaches 20, counting equality as reaching it, for GPTQSHYGQCGGPGYLGVIVCSGTTCQYQLRPTSQCLPGAS (disulfide (positions not given here)) [EpCAM CBD 70]
Response: Not fulfilled

Request: State whether the measured S/N reaches 20, counting equality as reaching it, for GPTQSHYGQCGGRGYPGAVVCSGTTCQYAVVPHSQCLPGAS (disulfide (positions not given here)) [EpCAM CBD 14]
Response: Not fulfilled

Request: State whether the measured S/N reaches 20, counting equality as reaching it, for GPTQSHYGQCGGFGYMGVMVCSGTTCQWIIRPFSQCLPGAS (disulfide (positions not given here)) [EpCAM CBD 25]
Response: Not fulfilled

Request: State whether the measured S/N reaches 20, counting equality as reaching it, for GPTQSHYGQCGGAGYVGTIKCSGTTCQYVLKPQSQCLPGAS (disulfide (positions not given here)) [EpCAM CBD 54]
Response: Not fulfilled

Request: State whether the measured S/N reaches 20, counting equality as reaching it, for GPTQSHYGQCGGGGYYGAISCSGTTCQPVRLIRSQCLPGAS (disulfide (positions not given here)) [EpCAM CBD 37]
Response: Not fulfilled

Request: State whether the measured S/N reaches 20, counting equality as reaching it, for GPTQSHYGQCGGPGYVGSIMCSGTTCQFQYIPTSQCLPGAS (disulfide (positions not given here)) [EpCAM CBD 23]
Response: Not fulfilled

Request: State whether the measured S/N reaches 20, counting equality as reaching it, for GCPRILMRCKQDSDCLAGCVCPGNILCG (disulfide (positions not given here)) [EpCAM EET I-II 29]
Response: Not fulfilled

Request: State whether the measured S/N reaches 20, counting equality as reaching it, for GCPRILMRCKQDSDCQPVCG (disulfide (positions not given here)) [EpCAM EET I-II 5]
Response: Fulfilled

Request: State whether the measured S/N reaches 20, counting equality as reaching it, for GCRRMGVRCKQDSDCLAGCVCWHDPQCG (disulfide (positions not given here)) [EpCAM EET I-II 3]
Response: Fulfilled

Request: State whether the measured S/N reaches 20, counting equality as reaching it, for GCPRILMRCKQDSELSSWLCLCCSGLVC (disulfide (positions not given here)) [EpCAM EET I-II 14]
Response: Fulfilled

Request: State whether the measured S/N reaches 20, counting equality as reaching it, for GCPRILMRCKQDSDCEAICG (disulfide (positions not given here)) [EpCAM EET I-II 8]
Response: Fulfilled

Request: State whether the measured S/N reaches 20, counting equality as reaching it, for GPTQSHYGQCGGVGYVGSILCSGTTCQFTKVRTSQCLPGAS (disulfide (positions not given here)) [EpCAM CBD 50]
Response: Not fulfilled

---

Consider the following substances; for each one, report its S/N.
System: PCSK9
Type: binding, human
CONDITION DESCRIPTION: spot phage ELISA signal-to-noise on PCSK9
Where no end group is shown, it is not given here.
# answer = number (no unit)

Entry GPTQSAFGPCGGIGYSGPTVCASGTTCQVLSPDVSQCLPGAS (disulfide (positions not given here)) [PCSK9 CBD 5] ; S/N = 2.6

Entry GCGYWYRIWFCKQDSDCLAGCVCGPNGFCG (disulfide (positions not given here)) [PCSK9 EET I-II 9] ; S/N = 9.4

Entry GPTQSEYGMCGGIGYSGPTVCASGTTCQVLDPTTSQCLPGAS (disulfide (positions not given here)) [PCSK9 CBD 17] ; S/N = 11.3

Entry GCHEGYWWRQWFCKQDSDCLAGCVCGPNGFCG (disulfide (positions not given here)) [PCSK9 EET I-II 19] ; S/N = 20.5

Entry GCGYWWVQWFCKQDSDCLAGCVCGPNGFCD (disulfide (positions not given here)) [PCSK9 EET I-II 11] ; S/N = 19.1

Entry GPTQSTYGQCGGIGYSGPTVCASGTTCQVLGPALSWCLPGAS (disulfide (positions not given here)) [PCSK9 CBD 9] ; S/N = 5.2

Entry GPTQSDYGMCGGIGYSGPTVCASGTTCQVLDPYTSQCLPGAS (disulfide (positions not given here)) [PCSK9 CBD 28] ; S/N = 14.2

Entry GPTQSNYGMCGGIGYSGPTVCASGTTCQVLqPSTSRCLPGAS (disulfide) [PCSK9 CBD 16] ; S/N = 11.6
